Some sequences, each annotated with its measured apparent KD of MS2 coat protein.
Test system: MS2 coat protein
Assay: apparent KD of MS2 coat protein; designed switch direction (-1 OFF switch, 1 ON switch): -1; higher = weaker reporter binding
Settings: input ligand: none
MEASUREMENT NAME: apparent KD of MS2 coat protein

INSERT INTO results (ordered_residues, measurement_name, endpoint_result) VALUES
  ('GUAAACGAAGAGGAUAUAUGAUAUCAAAGCUUCAUAGAAGGCUUCACAUGAGGAUCACCCAUGUGAUCUUCAAG [Mat - Exclusion 6 - JL Mod - D25] (Eterna round: R97, puzzle: Exclusion 6)', 'apparent KD of MS2 coat protein', '71.5 nM'),
  ('GGUGAGCUAGGAUAUGCUUUGGGCUCGCUUUCCUUCGAUAUACUUGAGGAUCACCCAAGUAGAAGGAGCUUGCC [salish99_ex2_r4_034] (Eterna round: R97, puzzle: Exclusion 2)', 'apparent KD of MS2 coat protein', '11.2 nM'),
  ('GGCGCCUCAGGAUAUCAGUCUGGAUCAGAAAAGAUCCUGACUGAGAAGGGACAUGAGGAUCACCCAUGUUCGCC [Mat - Exclusion 4 - Eli Mod - D52] (Eterna round: R97, puzzle: Exclusion 4)', 'apparent KD of MS2 coat protein', '18.4 nM'),
  ('UUAAUGGCUGUGAGGAUAUCGGAUAGAUAGAUAUUCGAGAAGGCACAUGAGGAUCACCCAUGUGUGAUCAGAGA [Brourd''s EX4 #62] (Eterna round: R97, puzzle: Brourd''s mod of Exclusion 4)', 'apparent KD of MS2 coat protein', '144 nM'),
  ('AUAUUGUGAGGAUAUGAACUUAGUAUCGAAAGAAACUAAGUUCAGAAGGCACAUGAGGAUCACCCAUGUUUCUC [Long static hairpin v10] (Eterna round: R97, puzzle: Exclusion 4)', 'apparent KD of MS2 coat protein', '63.2 nM');
